- ASSAYED TARGET: plasma purified human antithrombin III (AT-III) in complex with full-length unfractionated heparin (UFH)
ASSAY READOUT: K0.5-mut/K0.5-wt

Tell me measured K0.5-mut/K0.5-wt for FIXa Y155F/I251S/R318Y/R338E/R403E/E410N (protein) chain 1: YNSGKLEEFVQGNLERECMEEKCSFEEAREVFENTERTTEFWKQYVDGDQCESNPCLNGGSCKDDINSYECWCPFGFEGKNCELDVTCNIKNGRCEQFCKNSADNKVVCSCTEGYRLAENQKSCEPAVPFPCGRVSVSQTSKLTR chain 2: VVGGEDAKPGQFPWQVVLNGKVDAFCGGSIVNEKWIVTAAHCVETGVKITVVAGEHNIEETEHTEQKRNVSRIIPHHNYNAAINKYNHDIALLELDEPLVLNSYVTPICIADKEYTNIFLKFGSGYVSGWGRVFHKGYSALVLQYLRVPLVDRATCLESTKFTIYNNMFCAGFHEGGRDSCQGDSGGPHVTEVEGTSFLTGIISWGEECAMKGKYGIYTKVSEYVNWIKNKTKLT please. > 517 fold
